target: UniProt P34972; assay: Displacement of [3H]CP-55940 form human CB2 receptor expressed in HEK cells at 10 uM; type: cell-based; details: HEK293
Sequence (P34972 whole entry): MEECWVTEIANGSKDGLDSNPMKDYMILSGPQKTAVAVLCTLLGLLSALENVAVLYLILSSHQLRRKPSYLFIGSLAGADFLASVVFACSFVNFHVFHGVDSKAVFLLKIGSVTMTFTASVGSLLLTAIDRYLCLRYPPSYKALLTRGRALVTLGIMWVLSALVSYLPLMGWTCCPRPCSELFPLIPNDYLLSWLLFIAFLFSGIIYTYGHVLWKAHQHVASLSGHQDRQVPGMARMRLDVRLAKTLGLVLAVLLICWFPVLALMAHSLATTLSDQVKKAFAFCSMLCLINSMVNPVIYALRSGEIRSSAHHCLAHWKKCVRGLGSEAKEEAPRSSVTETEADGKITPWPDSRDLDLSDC
Record form. Attribute: Activity. Fill in for each entry.

Q: Fill in the blank: the reported Activity of O=C(CCCCCCCCCCOc1cc(O)cc(O)c1)NCC1CC1 is ____.
Result: > 50%

Q: Fill in the blank: the reported Activity of CCCCCCC(C)(C)c1cc(O)cc(OCCCCCCCCCCCC(=O)NC2CC2)c1 is ____.
Result: > 50%

Q: Fill in the blank: the reported Activity of CCCCCCC(C)(C)c1cc(O)cc(OCCCCCCCCCCC(=O)NCC2CC2)c1 is ____.
Result: > 50%

Q: Fill in the blank: the reported Activity of CCCCCCCOc1cc(O)cc(OCCCCCCCCCCC(=O)NCCO)c1 is ____.
Result: > 50%

Q: Fill in the blank: the reported Activity of CC(C)CCOc1cc(O)cc(OCCCCCCCCCCC(=O)NCC2CC2)c1 is ____.
Result: > 50%

Q: Fill in the blank: the reported Activity of CCCCCCC(C)(C)c1cc(O)cc(OCCCCCCCC(=O)NCC2CC2)c1 is ____.
Result: > 50%

Q: Fill in the blank: the reported Activity of CC(C)CCOc1cc(O)cc(OCCCCCCCCCCC(=O)NCCO)c1 is ____.
Result: > 50%

Q: Fill in the blank: the reported Activity of CCCCOc1cc(O)cc(OCCCCCCCCCCC(=O)NC2CC2)c1 is ____.
Result: > 50%

Q: Fill in the blank: the reported Activity of CCCCCCC(C)(C)c1cc(O)cc(OCCCCCCCC(=O)NCCO)c1 is ____.
Result: > 50%

Q: Fill in the blank: the reported Activity of O=C(CCCCCCCCCCOc1cc(O)cc(O)c1)NCCO is ____.
Result: > 50%

Q: Fill in the blank: the reported Activity of CCCCCCC(C)(C)c1cc(O)cc(OCCCCCCCCCCC(=O)NCCc2ccc(O)c(O)c2)c1 is ____.
Result: > 50%
